Values compiled from patent US20240076386A1.

I'd be grateful if you could share measured pEC50 for these entries.
ASSAYED SYSTEM: T1, human E-selectin extracellular domain with 10 His purification tail (human, UniProt P16581 22-556)
T1 construct: also called soluable human E-selectin extracellular domain; rhE-Selectin
T1 sequence: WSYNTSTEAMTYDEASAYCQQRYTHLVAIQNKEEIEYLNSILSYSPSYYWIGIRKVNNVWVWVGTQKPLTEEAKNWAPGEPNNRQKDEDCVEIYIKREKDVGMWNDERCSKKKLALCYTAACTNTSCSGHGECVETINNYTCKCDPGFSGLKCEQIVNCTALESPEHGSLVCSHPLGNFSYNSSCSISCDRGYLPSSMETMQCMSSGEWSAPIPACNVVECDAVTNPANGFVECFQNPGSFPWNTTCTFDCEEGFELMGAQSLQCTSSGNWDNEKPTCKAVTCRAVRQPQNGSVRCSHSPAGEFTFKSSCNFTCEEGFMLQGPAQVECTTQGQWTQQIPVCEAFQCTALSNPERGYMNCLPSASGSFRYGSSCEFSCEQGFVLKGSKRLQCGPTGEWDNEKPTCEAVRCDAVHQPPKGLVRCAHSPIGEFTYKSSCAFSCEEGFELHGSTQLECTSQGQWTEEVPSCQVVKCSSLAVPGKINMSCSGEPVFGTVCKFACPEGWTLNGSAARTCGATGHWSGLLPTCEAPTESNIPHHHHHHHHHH
PROTOCOL SUMMARY: antigen binding ELISA, HRP detection
pEC50 is defined as minus the log10 of a concentration measured in mol/L.

Data request: Recall and state the measured pEC50 for anti-E-selectin antibody 0170 chimera (antibody, human IgG1, kappa, V domains shown, rat VH/VL on effector-null human IgG1 and human kappa) VH: EVQLQQSGAELGKPGTSVKLSCKVSGYSIRSTYMHWVNQRPGKGLEWVGRIDPANGNTIYAERFKNKATLTADTSSNTAYMQLSQLKSDDTAIYFCAVEILGIFDYWGQGVMVTVSS VL: DIQMTQSPSFLSASVGDRVTINCKASQNIDKYLDWYQQKLGEAPKLLMYNTNSLHTGIPSRFSGSGSGTDFTLTISSLQPEDVATYFCLQHNSGYTFGAGTKLELKR .
Data returned: 11.00

Data request: Please indicate pEC50 recorded for anti-E-selectin antibody 0164 chimera (antibody, human IgG1, kappa, V domains shown, rat VH/VL on effector-null human IgG1 and human kappa) VH: EVQLQQSGAEFGKPGTSVKLSCKVSGYNIRSSYMHWVNQRPGKGLEWIGRIDPANGNTIYAEKFKIKAILTADSSSNTAYMQLSQLKSDDTAIYFCAMDLYSTSEYWGQGVMVTVSS VL: DIQMTQSPSFLSASVGDRVTINCKTSQNINRYLNWYQQKLGEAPKLLIYNANSLQTGIPSRFSASGSGTDFTLTINSLQPEDVATYFCLQDNSWPLTFGSGTKLEIKR
Data returned: 10.70

Data request: Provide only the value of recorded pEC50 for anti-E-selectin antibody 0158 chimera (antibody, human IgG1, kappa, V domains shown, rat VH/VL on effector-null human IgG1 and human kappa) VH: QVQLKESGPGLVQPSETLSLTCTVSGFSISTYNVHWLRQPPGKGLEWMGMMWSGGSPDYNSALKSRLSISRDTSKNQVFLKMNSLQSEDTTTYYCARWGGGFDYWGQGVMVTVSS VL: DIVLTQSPTTLSVTPGETVSLSCRASHSIGTNLHWYQQKTNESPRLLIKFTSQSISGIPSRFSASGSGTDFTLNINNVEFDDVSSYFCQQTQSWPLTFGSGTKLEIKR
Data returned: 10.52
